SYSTEM: purified human COMT enzyme of the Val158 variant (membrane-bound MB-COMT) (Homo sapiens, UniProt P21964)
Construct: 6xHis or 10xHis (C)
PROTOCOL_TEXT: MB-COMT inhibition, Esculetin or Fluorescence Polarization assay
Assay type: biochemical
TEST_SETTINGS: Esculetin or Fluorescence Polarization assay; human Val158 variant; read-out: MB-COMT IC50-
OBSERVATION_TYPE: IC50 (nM)

[[record]]
molecule = "O=c1cc(C(O)C(F)(F)F)n(-c2cccc(-c3cccc4ncccc34)c2)cc1O (stereo not shown)"
unit_of_measurement = "nM"
numeric_readout = 70


1: CC(O)c1cc(=O)c(O)cn1-c1cccc(-c2c(Cl)cnc3[nH]ccc23)c1 (single isomer, unassigned)
2: Nc1cc(=O)c(O)cn1-c1cccc(-c2ccccc2)c1
3: CC(O)c1cc(=O)c(O)cn1-c1cccc(-c2cncc3ccccc23)c1 (stereo not shown)
Enquiry: Number of molecules to sort: 3. Sort criterion: IC50, ascending. Could you list the labels in the order requested?
Return: 1, 2, 3
(1: 41 nM, 2: 75 nM, 3: 226 nM)

###

SYSTEM: purified human COMT enzyme of the Val158 variant (membrane-bound MB-COMT) (Homo sapiens, UniProt P21964)
Construct: 6xHis or 10xHis (C)
PROTOCOL_TEXT: MB-COMT inhibition, Esculetin or Fluorescence Polarization assay
Assay type: biochemical
OBSERVATION_TYPE: pIC50
# pIC50 is unitless: minus log10 of the molar concentration; print number only

Briefly, pIC50 measured for COc1ccc(-c2nc3cc(-n4ccc(=O)c(O)c4)ccc3[nH]2)cc1 : 7.19

###

SYSTEM: purified human COMT enzyme of the Val158 variant (membrane-bound MB-COMT) (Homo sapiens, UniProt P21964)
Construct: 6xHis or 10xHis (C)
PROTOCOL_TEXT: MB-COMT inhibition, Esculetin or Fluorescence Polarization assay
Assay type: biochemical
TEST_SETTINGS: Esculetin or Fluorescence Polarization assay; human Val158 variant; read-out: MB-COMT IC50-
OBSERVATION_TYPE: IC50 (nM)

[[record]]
compound = "CNc1cc(=O)c(O)cn1-c1cccc(-c2ccccc2)c1"
unit_of_measurement = "nM"
numeric_readout = 100

[[record]]
compound = "O=c1cc(C(O)C#Cc2ccccc2)n(-c2cccc(-c3c(Cl)cnc4[nH]ccc34)c2)cc1O (stereo not drawn)"
unit_of_measurement = "nM"
numeric_readout = 26


A: COc1ncc(F)cc1C(O)Cc1cc(=O)c(O)cn1-c1cccc(-c2ccccc2)c1 (stereo not drawn)
B: O=c1ccn(-c2cccc(-c3cccc4[nH]ncc34)n2)cc1O
C: O=c1ccn(-c2nccc(-c3c(Cl)cnc4[nH]ccc34)c2F)cc1O
D: Cc1cc(=O)c(O)cn1-c1cccc2c1ncn2Cc1c(F)cccc1Cl
Enquiry: Hello, I need these entries ordered by IC50, highest reading first. Thanks! Could you list the labels in the order requested?
Return: D, A, B, C
